# Test system: H82
# Test protocol: cells
# Particulars: Homo sapiens, NCI-H82, 6 h, read-out: AZD5991 6h EC50
pEC50: −log10 of the molar value.
Metric name: pEC50

>>> obs_value("Cc1c2c(nn1C)CSCc1cc(n(C)n1)CSc1cc(c3ccccc3c1)OCCCc1c(C(=O)O)n(C)c3c-2c(Cl)ccc13 (atropisomer, axis not shown; (Ra)) [(Ra)-7]")
6.70

----------
# Target system: UniProt Q07820
# Sequence (Q07820 171-327): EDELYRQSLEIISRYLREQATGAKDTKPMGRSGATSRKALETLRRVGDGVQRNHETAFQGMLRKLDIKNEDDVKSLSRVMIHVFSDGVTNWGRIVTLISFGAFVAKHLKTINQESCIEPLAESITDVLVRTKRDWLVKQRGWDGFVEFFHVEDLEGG
# Test protocol: TR-FRET binding assay
# Set-up: N-terminal GST-tagged-Mcl-1 protein from Mcl-1 (E171-G327); made in house; host or cells: E. coli
# Particulars: read-out: Mcl-1 FRET, IC50
pIC50: −log10 of the molar value.
Threshold check on pIC50: at or above 8 gives label 1, strictly below gives label 0.

>>> label_value("Cc1c(-c2cccc3c(CCCOc4cccc5ccccc45)c(C(=O)O)[nH]c23)c(CSCc2nn(C)c(C)c2-c2cccc3c(CCCOc4cccc5ccccc45)c(C(=O)O)[nH]c23)nn1C [Compound 3]")
"label 0"
>>> label_value("Cc1c2c(nn1C)CSCc1cc(n(C)n1)CSc1cc(c3ccccc3c1)OCCCc1c(C(=O)O)n(C)c3c-2cccc13 [Compound 6]")
"label 1"
>>> label_value("Cc1c2c(nn1C)CSCc1cc(n(C)n1)CSc1cc(c3ccccc3c1)OCCCc1c(C(=O)O)[nH]c3c-2cccc13 [Compound 5]")
"label 0"
>>> label_value("Cc1nn(C)c(C)c1-c1cccc2c(CCCOc3cccc4ccccc34)c(C(=O)O)[nH]c12 [Compound 2, reference compound]")
"label 0"
>>> label_value("Cc1ccccc1-c1cccc2c(CCCOc3cccc4c3CCCC4)c(C(=O)O)[nH]c12 [Compound 1, reference compound]")
"label 0"

----------
# Test system: H1568
# Test protocol: cells
# Particulars: NCI-H1568, 6 h, read-out: AZD5991 6h EC50
Metric name: EC50 (nM)

>>> obs_value("Cc1c2c(nn1C)CSCc1cc(n(C)n1)CSc1cc(c3ccccc3c1)OCCCc1c(C(=O)O)n(C)c3c-2c(Cl)ccc13 (atropisomer, axis not shown; (Ra)) [(Ra)-7]")
300

----------
# Target system: MV411
# Test protocol: Caspase-3/7 activation assay
# Format: cell-based
# Particulars: caspase activation, Mcl-1-dependent cell line; read-out: MV4-11, EC50
pEC50: −log10 of the molar value.
Metric name: pEC50

>>> obs_value("Cc1c2c(nn1C)CSCc1cc(n(C)n1)CSc1cc(c3ccccc3c1)OCCCc1c(C(=O)O)n(C)c3c-2cccc13")
5.98
>>> obs_value("Cc1nn(C)c(COc2ccc(N3CCN(S(=O)(=O)N(C)C)CC3)cc2)c1-c1cccc2c(CCCOc3cccc4ccccc34)c(C(=O)O)n(CCN3CCOCC3)c12 [Compound 8, A-1210477, reference compound]")
5.73

----------
# Test system: MALME3M
# Test protocol: cells
# Particulars: Homo sapiens, Malme-3M, 6 h, read-out: AZD5991 6h EC50
Metric name: EC50

>>> obs_value("Cc1c2c(nn1C)CSCc1cc(n(C)n1)CSc1cc(c3ccccc3c1)OCCCc1c(C(=O)O)n(C)c3c-2c(Cl)ccc13 (atropisomer, axis not shown; (Ra)) [(Ra)-7]")
"> 30 µM"

----------
# Test system: KMS34
# Test protocol: cells
# Particulars: KMS-34, 6 h, read-out: AZD5991 6h EC50
pEC50: −log10 of the molar value.
Metric name: pEC50

>>> obs_value("Cc1c2c(nn1C)CSCc1cc(n(C)n1)CSc1cc(c3ccccc3c1)OCCCc1c(C(=O)O)n(C)c3c-2c(Cl)ccc13 (atropisomer, axis not shown; (Ra)) [(Ra)-7]")
6.62
